# study system: recombinantly expressed human PARP-1 enzyme (Homo sapiens)
# Sequence (P09874 whole entry): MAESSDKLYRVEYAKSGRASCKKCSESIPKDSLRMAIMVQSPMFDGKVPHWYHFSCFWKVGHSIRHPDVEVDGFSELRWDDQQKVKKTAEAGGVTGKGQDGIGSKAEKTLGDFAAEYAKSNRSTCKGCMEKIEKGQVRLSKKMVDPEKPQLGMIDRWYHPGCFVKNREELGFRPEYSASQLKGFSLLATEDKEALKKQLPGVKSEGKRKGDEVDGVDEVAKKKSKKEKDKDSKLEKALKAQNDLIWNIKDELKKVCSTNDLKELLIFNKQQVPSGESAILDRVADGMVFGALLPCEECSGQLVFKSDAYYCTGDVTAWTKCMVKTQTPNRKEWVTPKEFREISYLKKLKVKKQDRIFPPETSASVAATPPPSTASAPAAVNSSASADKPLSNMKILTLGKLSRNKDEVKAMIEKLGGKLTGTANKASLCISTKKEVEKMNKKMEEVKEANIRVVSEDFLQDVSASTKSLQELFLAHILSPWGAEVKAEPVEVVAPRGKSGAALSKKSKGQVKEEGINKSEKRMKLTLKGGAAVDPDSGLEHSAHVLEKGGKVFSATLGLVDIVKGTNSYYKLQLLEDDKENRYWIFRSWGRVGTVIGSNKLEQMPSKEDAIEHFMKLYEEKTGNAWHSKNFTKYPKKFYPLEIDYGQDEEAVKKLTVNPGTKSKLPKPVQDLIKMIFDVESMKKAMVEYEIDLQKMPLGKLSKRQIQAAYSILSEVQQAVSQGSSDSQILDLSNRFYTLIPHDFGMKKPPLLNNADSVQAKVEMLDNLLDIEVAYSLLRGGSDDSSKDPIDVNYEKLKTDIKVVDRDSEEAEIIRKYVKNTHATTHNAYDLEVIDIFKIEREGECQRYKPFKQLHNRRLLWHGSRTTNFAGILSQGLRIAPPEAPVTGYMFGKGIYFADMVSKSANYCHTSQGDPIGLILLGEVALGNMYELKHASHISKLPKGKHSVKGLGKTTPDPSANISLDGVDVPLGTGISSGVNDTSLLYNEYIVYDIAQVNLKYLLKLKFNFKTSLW
# assay info: PARP enzyme assay, Method B (tritium-labeled NAD incorporation)
# Assay type: biochemical
# assay context: Method B; 200 μM NAD, room temperature 1 hour, pH 8.0; read-out: IC50 (μM)/Method B
Where a name gives a salt, the structure may show the parent alone.
One threshold, 3 µM, splits the recorded IC50 values: lower ones are class 1, equal or higher ones are class 0.

(Q) Please state whether IC50 is below 3 µM for `CCc1cc(-c2cc(C(=O)N3CCCC3)ccn2)c(C)[nH]c1=O`
(A) class 1

(Q) Please state whether IC50 is below 3 µM for `CCCCNC(=O)c1ccc(-c2cc(CC)c(=O)[nH]c2C)nc1`
(A) class 0

(Q) Please state whether IC50 is below 3 µM for CCc1cc(-c2cccc(CN3CCC(N4CCCC4)CC3)n2)c(C)[nH]c1=O [Example 182K]
(A) class 0

(Q) Please state whether IC50 is below 3 µM for CCc1cc(-c2cccc(CN3CCCC3)n2)c(C)[nH]c1=O [Example 182G]
(A) class 0

(Q) Please state whether IC50 is below 3 µM for CCc1cc(-c2ccc(S(=O)(=O)NC(C)c3ccccn3)s2)c(C)[nH]c1=O (stereo not drawn) [Example 43, hydrochloride]
(A) class 1

(Q) Please state whether IC50 is below 3 µM for CCc1cc(-c2ccc(C(=O)N3CCC(O)C3)cn2)c(C)[nH]c1=O (stereo not drawn)
(A) class 0

(Q) Please state whether IC50 is below 3 µM for `CCc1cc(-c2cncc(C(=O)NCCc3nc4ccccc4[nH]3)c2)c(C)[nH]c1=O`
(A) class 1

(Q) Please state whether IC50 is below 3 µM for `CCc1cc(-c2ccc(CNC(=O)c3ccccc3)o2)c(C)[nH]c1=O`
(A) class 1

(Q) Please state whether IC50 is below 3 µM for `CCc1cc(-c2cncc(C(=O)NCCc3ccncc3)c2)c(C)[nH]c1=O`
(A) class 1

(Q) Please state whether IC50 is below 3 µM for `CCc1cc(-c2cncc(C(=O)NCCN3CCOCC3)c2)c(C)[nH]c1=O`
(A) class 1

(Q) Please state whether IC50 is below 3 µM for `CCc1cc(-c2cc(C(=O)NC3CCCC3)ccn2)c(C)[nH]c1=O`
(A) class 1

(Q) Please state whether IC50 is below 3 µM for `CCc1cc(-c2cncc(C(=O)NCCN3C(=O)CSC3=O)c2)c(C)[nH]c1=O`
(A) class 0

(Q) Please state whether IC50 is below 3 µM for CCc1cc(-c2cccc(CN3CCN(C(C)=O)CC3)n2)c(C)[nH]c1=O [Example 182J]
(A) class 0

(Q) Please state whether IC50 is below 3 µM for `CCc1cc(-c2cncc(C(=O)NCCc3cccc(OC)c3)c2)c(C)[nH]c1=O`
(A) class 0

(Q) Please state whether IC50 is below 3 µM for `CCCCNC(=O)c1ccnc(-c2cc(CC)c(=O)[nH]c2C)c1`
(A) class 1

(Q) Please state whether IC50 is below 3 µM for CCc1cc(-c2ccc(CNCc3cnn(C)c3)o2)c(C)[nH]c1=O [Example 182D]
(A) class 1

(Q) Please state whether IC50 is below 3 µM for `CCc1cc(-c2ccc(C(=O)N3CCN(c4ccccc4)CC3)o2)c(C)[nH]c1=O`
(A) class 1

(Q) Please state whether IC50 is below 3 µM for `CCc1cc(-c2cncc(C(=O)NCc3cccc(OC)c3)c2)c(C)[nH]c1=O`
(A) class 1

====

# study system: recombinant human PARP (PARP1) (Homo sapiens, UniProt P09874)
# Construct: Full length human PARP (PARP1) is assembled from PCR fragments; His6 tag with TEV site, from the pFastBac-HTb vector (own knowledge of the vector); made in house; host or cells: insect cells, baculovirus (Bac-to-Bac, Gibco-BRL)
# assay info: PARP enzyme assay, Method A (radioactivity or 'ELISA' enzyme assay with partially purified enzyme)
# Assay type: biochemical
# assay context: recombinant human PARP preparation, radioactive or ELISA enzyme assay
Counter-ions that a name gives are not always drawn.
outcome measure: IC50

(Q) Using known records, supply IC50 for CCc1cc(-c2ccc(S(=O)(=O)N3CCN(CCN4CCCC4)CC3)s2)c(C)[nH]c1=O [Example 61, dihydrochloride]
(A) 0.43 µM

(Q) Using known records, supply IC50 for CCc1cc(-c2ccc(CNc3cc(F)cc(F)c3)s2)c(C)[nH]c1=O [Example 145, hydrochloride]
(A) 4 µM

(Q) Using known records, supply IC50 for CCc1cc(-c2ccc(CN[C@H]3CC[C@H](O)CC3)s2)c(C)[nH]c1=O [Example 125, hydrochloride]
(A) 0.45 µM

(Q) Using known records, supply IC50 for CCc1cc(-c2ccc(S(=O)(=O)NCCCN3CCCCC3)s2)c(C)[nH]c1=O [Example 63, hydrochloride]
(A) 0.42 µM

(Q) Using known records, supply IC50 for CCc1cc(-c2ccc(CNCc3cc(F)cc(F)c3)s2)c(C)[nH]c1=O [Example 158, hydrochloride]
(A) 0.51 µM

(Q) Using known records, supply IC50 for CCc1cc(-c2ccc(S(=O)(=O)N3CCCC(CO)C3)s2)c(C)[nH]c1=O (stereo not shown)
(A) 0.68 µM

(Q) Using known records, supply IC50 for CCc1cc(-c2ccc(S(=O)(=O)N3CCN(CCO)CC3)s2)c(C)[nH]c1=O [Example 91, hydrochloride]
(A) 2.9 µM

====

# study system: recombinant human PARP (PARP1) (Homo sapiens)
# Construct: Full length human PARP (PARP1) is assembled from PCR fragments; His6 tag with TEV site, from the pFastBac-HTb vector (own knowledge of the vector); made in house; host or cells: insect cells, baculovirus (Bac-to-Bac, Gibco-BRL)
# assay info: PARP enzyme assay, Method A (radioactivity or 'ELISA' enzyme assay with partially purified enzyme)
# Type: biochemical
# assay context: recombinant human PARP preparation, radioactive or ELISA enzyme assay
Where a name gives a salt, the structure may show the parent alone.
outcome measure: IC50 (µM)
The response must be a number in µM with no trailing unit.

(Q) # assay system recombinant human PARP (PARP1) (Homo sapiens): give IC50 of CCc1cc(-c2ccc(CNC3CCCC3)s2)c(C)[nH]c1=O [Example 189, hydrochloride]
(A) 0.41

(Q) # assay system recombinant human PARP (PARP1) (Homo sapiens): give IC50 of CCc1cc(-c2ccc(CNC3CCc4ccccc4C3)s2)c(C)[nH]c1=O (stereo not shown) [Example 134, hydrochloride]
(A) 0.8

(Q) # assay system recombinant human PARP (PARP1) (Homo sapiens): give IC50 of `CCc1cc(-c2ncnn2C)c(C)[nH]c1=O`
(A) 1.7

(Q) # assay system recombinant human PARP (PARP1) (Homo sapiens): give IC50 of CCc1cc(-c2ccc(S(=O)(=O)NCCCN3CCN(C)CC3)s2)c(C)[nH]c1=O [Example 65, dihydrochloride]
(A) 0.67

(Q) # assay system recombinant human PARP (PARP1) (Homo sapiens): give IC50 of `CCc1cc(-n2ccnn2)c(C)[nH]c1=O`
(A) 2.1

(Q) # assay system recombinant human PARP (PARP1) (Homo sapiens): give IC50 of `CCc1cc(-n2nccn2)c(C)[nH]c1=O`
(A) 1.6

(Q) # assay system recombinant human PARP (PARP1) (Homo sapiens): give IC50 of CCc1cc(-c2ccc(S(=O)(=O)N3CCC[C@H]3CNc3ccccc3)s2)c(C)[nH]c1=O [Example 105, hydrochloride]
(A) 3.1

(Q) # assay system recombinant human PARP (PARP1) (Homo sapiens): give IC50 of CCc1cc(-c2ccc(S(=O)(=O)NCc3nc4ccccc4[nH]3)s2)c(C)[nH]c1=O [Example 118, hydrochloride]
(A) 0.15

(Q) # assay system recombinant human PARP (PARP1) (Homo sapiens): give IC50 of CCc1cc(-c2ccc(S(=O)(=O)NCCN(C)C)s2)c(C)[nH]c1=O [Example 93, hydrochloride]
(A) 0.85

(Q) # assay system recombinant human PARP (PARP1) (Homo sapiens): give IC50 of CCc1cc(-c2ccc(S(=O)(=O)NCc3ccncc3)s2)c(C)[nH]c1=O [Example 110, hydrochloride]
(A) 0.08

(Q) # assay system recombinant human PARP (PARP1) (Homo sapiens): give IC50 of CCc1cc(-c2ccc(CNCc3ccccc3OC)s2)c(C)[nH]c1=O [Example 187, hydrochloride]
(A) 0.4

(Q) # assay system recombinant human PARP (PARP1) (Homo sapiens): give IC50 of CCc1cc(-c2ccc(S(=O)(=O)NCCC3CCCN3C)s2)c(C)[nH]c1=O (stereo not shown) [Example 36, hydrochloride]
(A) 3.7

(Q) # assay system recombinant human PARP (PARP1) (Homo sapiens): give IC50 of `CCc1cc(-c2ccc(S(=O)(=O)NCC3CCN(C(=O)OC(C)(C)C)CC3)s2)c(C)[nH]c1=O`
(A) 1.5

(Q) # assay system recombinant human PARP (PARP1) (Homo sapiens): give IC50 of CCc1cc(-c2ccc(S(=O)(=O)NCCCCc3cccnc3)s2)c(C)[nH]c1=O [Example 84, hydrochloride]
(A) 1.6

(Q) # assay system recombinant human PARP (PARP1) (Homo sapiens): give IC50 of `CCc1cc(-c2ccc(S(=O)(=O)NCc3cc(F)cc(F)c3)s2)c(C)[nH]c1=O`
(A) 0.1

(Q) # assay system recombinant human PARP (PARP1) (Homo sapiens): give IC50 of CCc1cc(-c2ccc(S(=O)(=O)NCCCN3CCC(O)C3)s2)c(C)[nH]c1=O (stereo not shown) [Example 30, hydrochloride]
(A) 10
